- System: SK-MEL-2
- assay.protocol: Antiproliferative activity against human SK-MEL-2 cells expressing N-Ras Q61R mutant assessed as decrease in cell growth incubated for 72 hrs by CellTiter-Glo based luminescence assay
- Assay type: functional
- test.context: SK-MEL-2, 72 h
pEC50: −log10 of the molar value.
property: pEC50

Per the record, O=C(NOCC1CC1)c1ccc(F)c(F)c1Nc1ccc(I)cc1Cl [CI-1040] has pEC50 of 6.44

Per the record, CN(C)CCOc1ccc(-c2nc(-c3ccncc3)c(-c3ccc4c(c3)CC/C4=N\O)[nH]2)cc1 [SB590885] has pEC50 of 6.26
